Target: T1, mouse SEMA4D, full length, on CHO-K1 cells (CHO-K1 mSEMA4D) (mouse, UniProt O09126 24-861)
T1 construct: whole, on cells; also called murine SEMA4D recombinant cells
T1 sequence (looked up): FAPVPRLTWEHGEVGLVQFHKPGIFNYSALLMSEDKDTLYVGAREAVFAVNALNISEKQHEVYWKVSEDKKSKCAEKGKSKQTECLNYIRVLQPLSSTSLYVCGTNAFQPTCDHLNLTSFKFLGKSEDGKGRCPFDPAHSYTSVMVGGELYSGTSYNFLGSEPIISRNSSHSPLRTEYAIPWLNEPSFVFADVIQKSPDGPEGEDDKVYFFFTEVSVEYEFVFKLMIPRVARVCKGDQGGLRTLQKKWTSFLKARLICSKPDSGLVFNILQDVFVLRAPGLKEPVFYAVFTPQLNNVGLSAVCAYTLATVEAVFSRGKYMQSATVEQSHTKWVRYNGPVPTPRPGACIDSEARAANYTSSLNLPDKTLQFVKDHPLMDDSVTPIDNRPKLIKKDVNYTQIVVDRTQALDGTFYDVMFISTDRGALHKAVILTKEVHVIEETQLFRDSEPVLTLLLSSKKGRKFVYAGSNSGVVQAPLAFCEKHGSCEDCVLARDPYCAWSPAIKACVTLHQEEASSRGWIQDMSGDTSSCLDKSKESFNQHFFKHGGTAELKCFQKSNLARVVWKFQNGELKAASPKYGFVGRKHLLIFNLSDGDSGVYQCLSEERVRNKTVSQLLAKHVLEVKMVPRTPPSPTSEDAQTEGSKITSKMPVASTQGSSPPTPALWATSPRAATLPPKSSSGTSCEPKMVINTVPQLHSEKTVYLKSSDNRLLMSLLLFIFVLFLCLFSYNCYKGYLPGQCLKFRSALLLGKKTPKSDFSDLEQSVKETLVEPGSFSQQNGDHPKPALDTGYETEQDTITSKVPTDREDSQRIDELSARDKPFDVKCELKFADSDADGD
Experiment: FACS, CHO-K1 mSEMA4D cells; Ab 0.000853 nM

# binder, MFI
rows = [
    ("42B7G2 (antibody, V domains shown, Mouse monoclonal antibody purified from hybridoma supernatant on protein A) VH: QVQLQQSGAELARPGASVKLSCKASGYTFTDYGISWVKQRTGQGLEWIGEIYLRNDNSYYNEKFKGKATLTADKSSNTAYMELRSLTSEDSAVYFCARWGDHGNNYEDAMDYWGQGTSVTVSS VL: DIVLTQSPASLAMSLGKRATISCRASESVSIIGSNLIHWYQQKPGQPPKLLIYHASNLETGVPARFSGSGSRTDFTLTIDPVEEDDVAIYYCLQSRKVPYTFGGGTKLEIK", 31.1),
    ("32C8F10 (antibody, V domains shown, Mouse monoclonal antibody purified from hybridoma supernatant on protein A) VH: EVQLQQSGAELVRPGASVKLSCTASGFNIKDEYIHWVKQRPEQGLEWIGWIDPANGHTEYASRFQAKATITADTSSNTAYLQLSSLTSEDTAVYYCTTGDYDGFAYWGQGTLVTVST VL: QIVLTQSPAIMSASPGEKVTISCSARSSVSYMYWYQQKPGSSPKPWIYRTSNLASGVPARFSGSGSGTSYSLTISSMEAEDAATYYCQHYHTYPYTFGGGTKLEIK", 30.4),
    ("37F11F9 (antibody, V domains shown, Mouse monoclonal antibody purified from hybridoma supernatant on protein A) VH: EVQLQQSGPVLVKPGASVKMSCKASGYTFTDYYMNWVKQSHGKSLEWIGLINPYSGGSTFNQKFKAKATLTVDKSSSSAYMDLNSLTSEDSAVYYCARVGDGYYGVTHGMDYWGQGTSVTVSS VL: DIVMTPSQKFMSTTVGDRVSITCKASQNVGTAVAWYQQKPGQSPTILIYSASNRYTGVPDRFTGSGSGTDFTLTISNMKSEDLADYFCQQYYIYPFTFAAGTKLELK", 29.7),
]

The reported numbers originate from patent US20220073608A1.
